Numbers sourced from patent US11236084B2.

molecular target: recombinant human NF-kappaB-inducing kinase (NIK/MAP3K14) (Homo sapiens, UniProt Q99558); experiment: Biological Assay B: inhibition of auto-phosphorylation of recombinant human NIK/MAP3K14 (AlphaScreen), performed at 2 locations; type: biochemical; details: location 2; AlphaScreen auto-phosphorylation; averaged values; read-out: Assay B location 2 IC50
Sequence (Q99558 whole entry): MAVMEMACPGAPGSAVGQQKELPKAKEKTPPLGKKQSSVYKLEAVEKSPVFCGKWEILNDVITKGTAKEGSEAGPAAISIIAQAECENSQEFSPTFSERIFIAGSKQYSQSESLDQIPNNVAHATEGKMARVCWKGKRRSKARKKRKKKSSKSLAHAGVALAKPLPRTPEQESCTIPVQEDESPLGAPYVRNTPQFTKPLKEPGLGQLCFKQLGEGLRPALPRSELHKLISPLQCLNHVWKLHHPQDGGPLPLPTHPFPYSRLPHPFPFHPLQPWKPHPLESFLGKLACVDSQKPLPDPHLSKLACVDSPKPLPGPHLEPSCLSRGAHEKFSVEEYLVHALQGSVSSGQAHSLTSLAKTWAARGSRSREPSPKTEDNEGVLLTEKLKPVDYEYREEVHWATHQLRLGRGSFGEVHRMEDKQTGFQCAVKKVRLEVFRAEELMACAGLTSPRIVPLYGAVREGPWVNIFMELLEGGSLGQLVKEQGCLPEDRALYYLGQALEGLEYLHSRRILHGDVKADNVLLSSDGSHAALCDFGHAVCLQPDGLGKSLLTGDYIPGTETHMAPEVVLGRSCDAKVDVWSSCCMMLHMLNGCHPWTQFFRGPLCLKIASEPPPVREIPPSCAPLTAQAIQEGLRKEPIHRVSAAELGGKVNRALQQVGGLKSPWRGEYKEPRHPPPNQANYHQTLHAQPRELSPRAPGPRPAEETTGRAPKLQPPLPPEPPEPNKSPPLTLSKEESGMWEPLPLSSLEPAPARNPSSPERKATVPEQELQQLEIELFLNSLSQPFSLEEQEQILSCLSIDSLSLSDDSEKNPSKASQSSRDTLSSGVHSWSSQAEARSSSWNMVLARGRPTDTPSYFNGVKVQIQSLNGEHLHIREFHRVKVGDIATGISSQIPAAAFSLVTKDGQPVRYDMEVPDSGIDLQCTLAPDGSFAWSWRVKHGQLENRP
value-type: IC50 (nM)

[[record]]
compound = "CCN1CCN(C(=O)c2cc(OC)c(Nc3nccc(-c4cnc5c(c4)C(C)(CO)CN5)n3)cc2Cl)CC1 (stereo not drawn)"
measured_target = "recombinant human NF-kappaB-inducing kinase (NIK/MAP3K14) (Homo sapiens, UniProt Q99558)"
value_type = "IC50"
unit_descriptor = "nM"
test_value = 1.5

[[record]]
compound = "COc1cc(N2CC3(CCOCC3)C2)c(C#N)cc1Nc1nccc(-c2cnc3c(c2)C(C)(CO)CN3)n1 (stereo not drawn)"
measured_target = "recombinant human NF-kappaB-inducing kinase (NIK/MAP3K14) (Homo sapiens, UniProt Q99558)"
value_type = "IC50"
unit_descriptor = "nM"
test_value = 1.6

[[record]]
compound = "COc1cc(C(=O)N2CCC(OC)CC2)c(Cl)cc1Nc1nccc(-c2cnc3c(c2)C(C)(C)CN3)n1"
measured_target = "recombinant human NF-kappaB-inducing kinase (NIK/MAP3K14) (Homo sapiens, UniProt Q99558)"
value_type = "IC50"
unit_descriptor = "nM"
test_value = 1.8

[[record]]
compound = "CNC(=O)c1ccc(Nc2nccc(-c3cnc4c(c3)C(C)(CO)CN4)n2)c(OC)c1 (stereo not drawn)"
measured_target = "recombinant human NF-kappaB-inducing kinase (NIK/MAP3K14) (Homo sapiens, UniProt Q99558)"
value_type = "IC50"
unit_descriptor = "nM"
test_value = 11.2

[[record]]
compound = "COc1cc(N2CC3(CCOCC3)C2)c(Cl)cc1Nc1nccc(-c2cnc3c(c2)C(C)(CO)CN3)n1 (single isomer, unassigned) [Compound 3S]"
measured_target = "recombinant human NF-kappaB-inducing kinase (NIK/MAP3K14) (Homo sapiens, UniProt Q99558)"
value_type = "IC50"
unit_descriptor = "nM"
test_value = 1.3

[[record]]
compound = "Cc1cc(C(=O)N2CCC(O)CC2)ccc1Nc1nccc(-c2cnc3c(c2)C(C)(CO)CN3)n1 (stereo not drawn)"
measured_target = "recombinant human NF-kappaB-inducing kinase (NIK/MAP3K14) (Homo sapiens, UniProt Q99558)"
value_type = "IC50"
unit_descriptor = "nM"
test_value = 5.5

[[record]]
compound = "CC(=O)Nc1ccc(C)c(Nc2nccc(-c3cnc4c(c3)C(C)(CO)CN4)n2)c1 (stereo not drawn)"
measured_target = "recombinant human NF-kappaB-inducing kinase (NIK/MAP3K14) (Homo sapiens, UniProt Q99558)"
value_type = "IC50"
unit_descriptor = "nM"
test_value = 49

[[record]]
compound = "COCCN1CCN(c2cc(OC)c(Nc3nccc(-c4cnc5c(c4)C(C)(CO)CN5)n3)cc2Cl)CC1 (stereo not drawn)"
measured_target = "recombinant human NF-kappaB-inducing kinase (NIK/MAP3K14) (Homo sapiens, UniProt Q99558)"
value_type = "IC50"
unit_descriptor = "nM"
test_value = 0.9

[[record]]
compound = "COCCOc1cc(N2CCOCC2)c(F)cc1Nc1nccc(-c2cnc3c(c2)C(C)(CO)CN3)n1 (stereo not drawn)"
measured_target = "recombinant human NF-kappaB-inducing kinase (NIK/MAP3K14) (Homo sapiens, UniProt Q99558)"
value_type = "IC50"
unit_descriptor = "nM"
test_value = 112

[[record]]
compound = "Cc1cc(N2CCOCC2)c(C#N)cc1Nc1nccc(-c2cnc3c(c2)C(C)(CO)CN3)n1 (single isomer, unassigned) [Compound 262]"
measured_target = "recombinant human NF-kappaB-inducing kinase (NIK/MAP3K14) (Homo sapiens, UniProt Q99558)"
value_type = "IC50"
unit_descriptor = "nM"
test_value = 129

[[record]]
compound = "COc1cccc(Cl)c1Nc1nccc(-c2cnc3c(c2)C(C)(CO)CN3)n1 (stereo not drawn)"
measured_target = "recombinant human NF-kappaB-inducing kinase (NIK/MAP3K14) (Homo sapiens, UniProt Q99558)"
value_type = "IC50"
unit_descriptor = "nM"
test_value = 6760

[[record]]
compound = "COc1cc(N2CC3(CCOCC3)C2)c(F)cc1Nc1nccc(-c2cnc3c(c2)C(C)(CO)CN3)n1 (stereo not drawn) [Compound 7]"
measured_target = "recombinant human NF-kappaB-inducing kinase (NIK/MAP3K14) (Homo sapiens, UniProt Q99558)"
value_type = "IC50"
unit_descriptor = "nM"
test_value = 2.6

[[record]]
compound = "COc1ccc(C)cc1Nc1nccc(-c2cnc3c(c2)C(C)(CO)CN3)n1 (stereo not drawn)"
measured_target = "recombinant human NF-kappaB-inducing kinase (NIK/MAP3K14) (Homo sapiens, UniProt Q99558)"
value_type = "IC50"
unit_descriptor = "nM"
test_value = 3.4

[[record]]
compound = "COc1cc(N2CCC(C)(O)CC2)c(Cl)cc1Nc1nccc(-c2cnc3c(c2)C(C)(CO)CN3)n1 (stereo not drawn)"
measured_target = "recombinant human NF-kappaB-inducing kinase (NIK/MAP3K14) (Homo sapiens, UniProt Q99558)"
value_type = "IC50"
unit_descriptor = "nM"
test_value = 2.2

[[record]]
compound = "COc1ccc(Cl)c(Nc2nccc(-c3cnc4c(c3)C(C)(CO)CN4)n2)c1 (stereo not drawn)"
measured_target = "recombinant human NF-kappaB-inducing kinase (NIK/MAP3K14) (Homo sapiens, UniProt Q99558)"
value_type = "IC50"
unit_descriptor = "nM"
test_value = 2.6


###

biological target: recombinant human NF-kappaB-inducing kinase (NIK/MAP3K14) (Homo sapiens); assay: Biological Assay B: inhibition of auto-phosphorylation of recombinant human NIK/MAP3K14 (AlphaScreen), performed at 2 locations; assay type: biochemical; settings: location 2; AlphaScreen auto-phosphorylation; averaged values; read-out: Assay B location 2 IC50
pIC50: −log10 of the molar value.
Decision: pIC50 compared against 8; not below it gives Fulfilled, below it gives Not fulfilled.

[[record]]
compound = "COc1cc(CO)c(Cl)cc1Nc1nccc(-c2cnc3c(c2)C(C)(CO)CN3)n1 (stereo not shown)"
measured_target = "recombinant human NF-kappaB-inducing kinase (NIK/MAP3K14) (Homo sapiens)"
assigned_class = "Fulfilled"

[[record]]
compound = "CC1(CO)CNc2ncc(-c3ccnc(Nc4cc(F)c(N5CCOCC5)cc4Cl)n3)cc21 (single isomer, unassigned) [Compound 263]"
measured_target = "recombinant human NF-kappaB-inducing kinase (NIK/MAP3K14) (Homo sapiens)"
assigned_class = "Not fulfilled"

[[record]]
compound = "CC(=O)NCc1ccc(Nc2nccc(-c3cnc4c(c3)C(C)(C)CN4)n2)c(C)c1"
measured_target = "recombinant human NF-kappaB-inducing kinase (NIK/MAP3K14) (Homo sapiens)"
assigned_class = "Fulfilled"

[[record]]
compound = "COc1cc(N2CCN(C)CC2)c(Cl)cc1Nc1nccc(-c2cnc3c(c2)C(C)(CO)CN3)n1 (single isomer, unassigned) [Compound 291]"
measured_target = "recombinant human NF-kappaB-inducing kinase (NIK/MAP3K14) (Homo sapiens)"
assigned_class = "Fulfilled"

[[record]]
compound = "COc1ccc(C(C)C)cc1Nc1nccc(-c2cnc3c(c2)C(C)(CO)CN3)n1 (stereo not shown)"
measured_target = "recombinant human NF-kappaB-inducing kinase (NIK/MAP3K14) (Homo sapiens)"
assigned_class = "Not fulfilled"


###

Below, each entry is listed alongside its reported IC50.
molecular target: recombinant human NF-kappaB-inducing kinase (NIK/MAP3K14) (Homo sapiens, UniProt Q99558); assay: Biological Assay B: inhibition of auto-phosphorylation of recombinant human NIK/MAP3K14 (AlphaScreen), performed at 2 locations; assay type: biochemical; details: location 1; AlphaScreen auto-phosphorylation; averaged values; read-out: Assay B location 1 IC50
value-type: IC50 (nM)

[[record]]
compound = "Cc1cc(N2CCOCC2)c(Cl)cc1Nc1nccc(-c2cnc3c(c2)C(C)(CO)CN3)n1 (single isomer, unassigned) [Compound 258]"
value_type = "IC50"
unit_descriptor = "nM"
test_value = 91.2

[[record]]
compound = "COc1cc(C#N)c(C)c(Nc2nccc(-c3cnc4c(c3)C(C)(CO)CN4)n2)c1 (stereo not shown)"
value_type = "IC50"
unit_descriptor = "nM"
test_value = 7.4

[[record]]
compound = "COc1cc(C(=O)N2CCC(OC)CC2)c(Cl)cc1Nc1nccc(-c2cnc3c(c2)C(C)(C)CN3)n1"
value_type = "IC50"
unit_descriptor = "nM"
test_value = 5.3

[[record]]
compound = "COCC(C)(C)CNc1cc(OC)c(Nc2nccc(-c3cnc4c(c3)C(C)(CO)CN4)n2)cc1F (stereo not shown)"
value_type = "IC50"
unit_descriptor = "nM"
test_value = 22.9


###

Quick reference: log10 IC50 of the listed items.
target: recombinant human NF-kappaB-inducing kinase (NIK/MAP3K14) (Homo sapiens); assay: Biological Assay B: inhibition of auto-phosphorylation of recombinant human NIK/MAP3K14 (AlphaScreen), performed at 2 locations; assay type: biochemical; settings: location 2; AlphaScreen auto-phosphorylation; averaged values; read-out: Assay B location 2 IC50
value-type: log10 IC50 (log10 of the value in nM)

[[record]]
molecule = "COc1cc(N2CCOCC2)c(Cl)cc1Nc1nccc(-c2cnc3c(c2)C(C)(CO)CN3)n1 (stereo not shown) [Compound 6]"
test_value = 0.60

[[record]]
molecule = "CC(C)Oc1ccccc1Nc1nccc(-c2cnc3c(c2)C(C)(CO)CN3)n1 (stereo not shown)"
test_value = 1.53

[[record]]
molecule = "COCCN1CCC(c2cc(OC)c(Nc3nccc(-c4cnc5c(c4)C(C)(CO)CN5)n3)cc2Cl)CC1 (stereo not shown)"
test_value = 0.08

[[record]]
molecule = "CCC1(CCO)CNc2ncc(-c3ccnc(Nc4ccc(C(=O)N5CCC(OC)CC5)cc4OC)n3)cc21 (stereo not shown)"
test_value = 1.10

[[record]]
molecule = "COc1cc(N2CC(C)(O)C2)c(Cl)cc1Nc1nccc(-c2cnc3c(c2)C(C)(CO)CN3)n1 (stereo not shown)"
test_value = 0.69

[[record]]
molecule = "COc1ccc(Nc2nccc(-c3cnc4c(c3)C(C)(CO)CN4)n2)c(OC)c1 (stereo not shown)"
test_value = 0.75

[[record]]
molecule = "CCN1CCN(c2cc(OC)c(Nc3nccc(-c4cnc5c(c4)C(C)(CO)CN5)n3)cc2Cl)CC1 (single isomer, unassigned) [Compound 293]"
test_value = -0.30

